Measured minimal effective concentration by item
test system: human Peripheral Blood Mononuclear Cell (PMBC); test: PBMC assay: cytokine (IFN-α) stimulation at 24 hours; format: cell-based; conditions: lowest concentration stimulating IFN-α production at least 3-fold over background, Luminex, read-out: IFN MEC

These solved cases illustrate the format of a correct answer.
Fill in: minimal effective concentration of Nc1nc(OCC2CCCO2)nc2c1NC(=O)CN2Cc1cccc(CN2CCCC2)c1 (centres unmarked) [Example 29] is ___
> 0.03 µM

Fill in: minimal effective concentration of Nc1nc(OCC2CCCCC2)nc2c1NC(=O)CN2Cc1cccc(CN2CCCC2)c1 [Example 13] is ___
> 0.03 µM

Fill in: minimal effective concentration of COC[C@H](C)Oc1nc(N)c2c(n1)N(Cc1cccc(CN3CCCC3)c1)CC(=O)N2 [Example 87] is ___
≤ 0.03 µM

Fill in: minimal effective concentration of CCCCOc1nc(N)c2c(n1)N(Cc1ccc3c(c1)CCN(C(C)C)C3)CC(=O)N2 [Example 105] is ___
≤ 0.03 µM

Fill in: minimal effective concentration of CCCCOc1nc(N)c2c(n1)N(Cc1cccc(CN3CCCC3)c1)C(C)C(=O)N2 (centres unmarked) [Example 64] is ___
> 0.03 µM

Fill in: minimal effective concentration of CCCCOc1nc(N)c2c(n1)N(C(C)c1ccc(CN3CCCC3)cc1)CC(=O)N2 (centres unmarked) [Example 74] is ___
> 0.03 µM

Next:
Fill in: minimal effective concentration of CC(C)(C)COc1nc(N)c2c(n1)N(Cc1cccc(CN3CCCC3)c1)CC(=O)N2 [Example 14] is ___
> 0.03 µM

Fill in: minimal effective concentration of CCCCOc1nc(N)c2c(n1)N(CCC1CCN(Cc3ccccc3)CC1)CC(=O)N2 [Example 108] is ___
> 0.03 µM

Fill in: minimal effective concentration of CCCN(C)C(=O)c1nc(N)c2[nH]c(=O)c(=O)n(Cc3cccc(CN4CCCC4)c3)c2n1 [Example 92] is ___
> 0.03 µM

Fill in: minimal effective concentration of Nc1nc(NC2CC2)nc2c1NC(=O)CN2Cc1cccc(CN2CCCC2)c1 [Example 35] is ___
> 0.03 µM

Fill in: minimal effective concentration of CCOP(=O)(CCNc1nc(N)c2c(n1)N(Cc1cccc(CN3CCCC3)c1)CC(=O)N2)OCC [Example 45] is ___
> 0.03 µM

Fill in: minimal effective concentration of CCCCOc1nc(N)c2c(n1)N(Cc1ccc3c(c1)CCN(CC1CC1)C3)CC(=O)N2 [Example 106] is ___
> 0.03 µM

Fill in: minimal effective concentration of Nc1nc(OCC2CCCC2)nc2c1NC(=O)CN2Cc1cccc(CN2CCCC2)c1 [Example 8] is ___
> 0.03 µM

Fill in: minimal effective concentration of CC(C)(O)CCOc1nc(N)c2c(n1)N(Cc1cccc(CN3CCCC3)c1)CC(=O)N2 [Example 28] is ___
> 0.03 µM

Fill in: minimal effective concentration of Nc1nc(NCC2CC2)nc2c1NC(=O)CN2Cc1cccc(CN2CCCC2)c1 [Example 39] is ___
≤ 0.03 µM

Fill in: minimal effective concentration of CCCC(C)Oc1nc(N)c2c(n1)N(Cc1cccc(CN3CCCC3)c1)CC(=O)N2 (centres unmarked) [Example 24] is ___
≤ 0.03 µM

Fill in: minimal effective concentration of CCC[C@@H](C)Oc1nc(N)c2c(n1)N(Cc1cccc(CN3CCCC3)c1)CC(=O)N2 [Example 58] is ___
> 0.03 µM
